# tested_system: Quinolone resistance protein NorA (Staphylococcus aureus)
# assay_method_text: Inhibition of Staphylococcus aureus SA-1199 norA assessed as potentiation of ciprofloxacin-induced antibacterial activity up to 100 ug/ml by checkerboard method
Activity calls are given as the source filed them. The calls are words filed in the database; no cut-off is given here.
measure_name: Activity

Answered examples (5):
CCCOc1ccc(-c2cc(OCCN(CC)CC)c3cc(OCc4ccccc4)ccc3n2)cc1 : inactive
CCCOc1ccc(-c2cc(OCCN3CCCCC3)c3cc(OCCCN4CCOCC4)ccc3n2)cc1 : inactive
CCCOc1ccc(-c2cc(OCCN3CCCCC3)c3cc(OCCN4CCCCC4)ccc3n2)cc1 : inactive
CCCOc1ccc(-c2cc(OCCN(CC)CC)c3cc(OCCN(CC)CC)ccc3n2)cc1 : inactive
CCCOc1ccc(-c2cc(OCCN(CC)CC)c3cc(OCCCN(C)C)ccc3n2)cc1 : inactive

Respectfully, I request Activity for each entry included below.
1. CCCOc1ccc(-c2cc(OCCN(CC)CC)c3cc(OCCCN4CCOCC4)ccc3n2)cc1
2. CCCOc1ccc(-c2cc(OCCN(CC)CC)c3cc(O)ccc3n2)cc1
3. CCCOc1ccc(-c2cc(OCCN3CCCCC3)c3cc(O)ccc3n2)cc1
4. CCCOc1ccc(-c2cc(OCCN3CCCCC3)c3cc(OCc4ccccc4)ccc3n2)cc1
5. CCCOc1ccc(-c2cc(OCCN3CCCCC3)c3cc(OCCN(CC)CC)ccc3n2)cc1
6. CCCOc1ccc(-c2cc(OCCN(CC)CC)c3cc(OCCN4CCCCC4)ccc3n2)cc1
7. CCCOc1ccc(-c2cc(OCCN3CCCCC3)c3cc(OCCCN(C)C)ccc3n2)cc1

["inactive", "inactive", "inactive", "inactive", "inactive", "inactive", "inactive"]
